These measurements were taken from PubChem BioAssay AID1159561.

# Tested on: NIH-3T3 viability, ATP luminescence
# Method description: murine fibroblast viability via ATP level – cell-based, murine fibroblasts, cytotoxicity control for Trypanosoma cruzi inhibitor project (AID 1159561)
# Condition context: 4 days
The source made the active and inactive calls.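 The calls were made as follows: active = toxic to mouse fibroblast host cells, with IC50 below 50 µM; inactive = the rest.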
Test readout: IC50

Ask | Identify the measured IC50 of CCCN1CCN(Cc2ccc(S(=O)(=O)Nc3cccc(C)c3)cc2)CC1 for NIH-3T3 viability, ATP luminescence.
Reply | 25 µM

Ask | Identify the measured IC50 of CN1CCCN(C(=O)c2ccc(N3CCCC3)cc2Cl)CC1 for NIH-3T3 viability, ATP luminescence.
Reply | 25 µM

Ask | Identify the measured IC50 of N#Cc1cc([N+](=O)[O-])ccc1NC1CCCCCC1 for NIH-3T3 viability, ATP luminescence.
Reply | > 50 µM (inactive)

Ask | Identify the measured IC50 of O=C1CN(C2CCCc3c(OCc4ccncc4)cccc32)C(=O)N1C1CCCCC1 (stereo not given) for NIH-3T3 viability, ATP luminescence.
Reply | > 50 µM (inactive)

Ask | Identify the measured IC50 of CC(C)c1cc(C(=O)N2CCCC(c3cc4ncccc4[nH]3)C2)on1 (stereo not given) for NIH-3T3 viability, ATP luminescence.
Reply | 20 µM

----------
# System: NIH-3T3 viability, ATP luminescence
# Method description: murine fibroblast viability via ATP level – cell-based, murine fibroblasts, cytotoxicity control for Trypanosoma cruzi inhibitor project (AID 1159561)
# Condition context: 4 days
The source made the active and inactive calls.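 How the source made its calls: active means toxic to mouse fibroblast host cells, with IC50 below 50 µM; inactive means the rest.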
Allowed answers: class 1 for active, class 0 for inactive

Ask | How did this test come out for C=CCn1nc([N+](=O)[O-])nc1Oc1ccc(Cl)cc1Cl ?
Reply | class 1

Ask | How did this test come out for CC(C)(C)C(Cn1ccnc1)NC(=O)c1ccc2nc(C3CC3)oc2c1 (stereo not drawn) ?
Reply | class 0

Ask | How did this test come out for COc1ccc2nccc([C@H](O)CN3CC[C@H](NC(=O)c4ccc(Br)cc4)[C@@H](O)C3)c2n1 ?
Reply | class 0

Ask | How did this test come out for CN(C(=O)Nc1ccc2c(c1)CCN(C1CCC1)CC2)c1ccc(C#N)cc1 ?
Reply | class 1

Ask | How did this test come out for Cc1ccc2c(c1)-c1onc(C(=O)N3CCCCC3c3cccnc3)c1CO2 (stereo not drawn) ?
Reply | class 1

Ask | How did this test come out for Nc1ncnc2c1ncn2[C@@H]1O[C@H](CO)C[C@H]1O ?
Reply | class 0

Ask | How did this test come out for O=C(NCc1nnc2n1CCCCC2)c1ccc(-c2ccc(F)cc2)o1 ?
Reply | class 0

Ask | How did this test come out for Cc1ccc(S(=O)(=O)Nc2ccc(CN3CCN(C(=O)c4cccc(C#N)c4)CC3)cc2)cc1 ?
Reply | class 0

Ask | How did this test come out for O=c1ccc2ccc(F)c3c2n1C[C@H]3CN1CCC(NCc2cc3ccccc3o2)CC1 ?
Reply | class 1

Ask | How did this test come out for Cc1sc(C)c(C(F)(F)F)c1CNCCCNc1cc(=O)c2ccccc2[nH]1 ?
Reply | class 1

Ask | How did this test come out for Clc1ccc(C(CC2CCCCO2)Cn2cncn2)c(Cl)c1 (stereo not drawn) ?
Reply | class 1

Ask | How did this test come out for CCn1nccc1CN(C)C(=O)C=Cc1ccc(Cl)cc1 ?
Reply | class 0

Ask | How did this test come out for CN(Cc1cc2ccccc2s1)c1ncc2c(N)nc(N)nc2n1 ?
Reply | class 1

Ask | How did this test come out for O=C(NCCc1nc(-c2ccc(F)c(F)c2)n[nH]1)C1CCCCC1 ?
Reply | class 0

Ask | How did this test come out for COc1ccc(NS(=O)(=O)c2cccc(NC(=O)c3cc(F)cc(F)c3)c2)cc1 ?
Reply | class 1

Ask | How did this test come out for Clc1ccc(Sc2cnccc2N2CCOCC2)cc1 ?
Reply | class 0

Ask | How did this test come out for Cn1cc(CN2CCN(c3ccc4c(c3)CCN(C(=O)[C@H]3C[C@@H]3c3ccccc3)CC4)CC2)cn1 ?
Reply | class 1

Ask | How did this test come out for O=[N+]([O-])c1ccc(C2=CC(c3ccccc3)=NCCN2)cc1 ?
Reply | class 1

Ask | How did this test come out for COc1ccccc1-c1c(C)[nH]c2nc(N)nc(C)c12 ?
Reply | class 0

Ask | How did this test come out for COc1ccc(CN2CCCCC2c2nc(-c3cccnc3)no2)cc1 (stereo not drawn) ?
Reply | class 0

Ask | How did this test come out for COc1ccc(C(C)(C)C)cc1S(=O)(=O)n1ccnc1 ?
Reply | class 0

Ask | How did this test come out for Cc1ccccc1OCC(=O)N1CCCN(c2cccnn2)CC1 ?
Reply | class 1

Ask | How did this test come out for O=C(NCC(c1cccnc1)N1CCc2ccccc2C1)C(=O)Nc1cccc(Cl)c1 (stereo not drawn) ?
Reply | class 1

Ask | How did this test come out for Cc1cccc(NS(=O)(=O)c2cnc3sc(C)cn3c2=O)c1 ?
Reply | class 0

Ask | How did this test come out for Cc1cc(C)c(C#N)c(SCC(=O)c2ccc3c(c2)OCO3)n1 ?
Reply | class 0

Ask | How did this test come out for Clc1ccc(CN2CCN(C3=NCCN3)CC2)cc1Cl ?
Reply | class 1

Ask | How did this test come out for O=C(CSc1ccc(-c2ccccn2)nn1)Nc1ccc(Cl)cc1 ?
Reply | class 1

Ask | How did this test come out for Cc1c(C(C)NC(=O)Nc2cccc(Cl)c2)sc2ncnn12 (stereo not drawn) ?
Reply | class 0

Ask | How did this test come out for OC1CCC(Nc2nccc(-c3sc(C4CCOCC4)nc3-c3ccc(F)c(F)c3)n2)CC1 (stereo not drawn) ?
Reply | class 1

Ask | How did this test come out for CC1=C(C(=O)Nc2ccc(Cl)cc2)C(c2ccncc2)n2ncc(C(=O)Nc3ccccc3)c2N1 (stereo not drawn) ?
Reply | class 1

Ask | How did this test come out for CNc1cncc(C2CCCN2C(=O)Cc2ccc3ccccc3c2)n1 (stereo not drawn) ?
Reply | class 0

Ask | How did this test come out for NC(=O)c1ccccc1Nc1nc(NC2CCCCC2)nc2[nH]ccc12 ?
Reply | class 1

Ask | How did this test come out for Cc1ccc2sc(NC(=O)Cn3cnc([N+](=O)[O-])n3)nc2c1 ?
Reply | class 1
